Protein target, amino acids: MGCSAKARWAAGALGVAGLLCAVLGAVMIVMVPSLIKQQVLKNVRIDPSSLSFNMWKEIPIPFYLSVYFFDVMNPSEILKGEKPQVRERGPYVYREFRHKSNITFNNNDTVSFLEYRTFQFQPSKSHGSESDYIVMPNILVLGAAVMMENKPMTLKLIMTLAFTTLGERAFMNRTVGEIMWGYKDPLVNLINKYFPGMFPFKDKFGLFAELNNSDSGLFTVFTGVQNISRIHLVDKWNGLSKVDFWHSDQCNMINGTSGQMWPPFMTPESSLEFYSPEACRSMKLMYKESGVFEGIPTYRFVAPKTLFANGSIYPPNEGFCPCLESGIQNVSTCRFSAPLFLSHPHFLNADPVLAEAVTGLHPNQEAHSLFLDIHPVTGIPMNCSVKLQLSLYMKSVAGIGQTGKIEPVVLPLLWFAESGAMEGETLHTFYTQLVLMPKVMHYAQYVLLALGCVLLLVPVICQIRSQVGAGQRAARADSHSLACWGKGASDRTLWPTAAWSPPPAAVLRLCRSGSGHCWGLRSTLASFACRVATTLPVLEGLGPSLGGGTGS
metric name: pKd
Please keep in mind that pKd is minus log10 of the molar concentration; only the number is needed.

Q: Give the measured pKd for C#CCCC1(CCN2CCN(c3cc4c(cc3F)c(=O)c(C(=O)O)cn4C3CC3)CC2)N=N1 [Cipro P1]
A: 3.40
